B1: TPR t1 (parent)
chain: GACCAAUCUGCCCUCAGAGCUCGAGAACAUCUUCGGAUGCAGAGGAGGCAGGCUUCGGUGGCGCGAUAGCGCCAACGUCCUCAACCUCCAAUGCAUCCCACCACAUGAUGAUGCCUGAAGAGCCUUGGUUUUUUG

Variants of: B1
PROTOCOL TEXT: polymerase ribozyme fitness, log enrichment relative to wild type (log ratio); higher = more active; in vitro selection for triplet polymerase activity
Assign polymerase ribozyme fitness (log ratio) to each entry below.
Keep the answer to the number alone.

Lookup result for GACCAAUCUGCCCUCAGAGCUCGAGAACAUCUUCGGAUGUAGAGGAGGCAGGCUUCGGUGGCGCGAUAGCGCCAACGUCCUCAACCUCCAAUGCAUCCCACCACAUGAUUAUGCCUGAAGAGCCUUGGUUUUUUC ; measured polymerase ribozyme fitness (log ratio): -2.95

Lookup result for GACCAAUCUGCCUUCAGAGCUCGAGAACAUCUUCGGAUGCGGAGGAGGAAGUCUUCGGUGGCGCGAUAGCGCCAACGUCCUCAACCUCCAAUGCAUCCCACCACAUGAUGAUGCCUGAAGAGCCUUGGUUUUUUG ; measured polymerase ribozyme fitness (log ratio): -1.15

Lookup result for GACCAAUCUGCCCUCAGAGCUCGAGAACAUCUUCGGAUGCAGAGGAGGCAGGCUUCGGUUGCGCGAUAGCGCCAACGUCCUCAACCUCCAAUGGAUCCCACCACAUGAUCAUGCCUAAAGAGCCUUGGUUUUUUG ; measured polymerase ribozyme fitness (log ratio): -7.56

Lookup result for GACCAAUCUGCCCACAGAGCUCGAGAACAUCUUCGGAUGCAGAGGAGUCAGGCUUCGGUGGCGCGAUAGCGCCAACGUCCUCAACCUCCAAUGCAUCCCACCACAUGAUGAUGCCUGAAGAGCCUUGGUUUUUUG ; measured polymerase ribozyme fitness (log ratio): -2.9

Lookup result for GACCAAUCUGCCCUCAGAGCUCGGGAACAUCUUCGGAUGCAGAGGAGGCAGGCGUCCGUGGCGCGAUAGCGCCAACGUCCUCAACCUCCAAUGCAUCCCACCACAUGAUGAUGCCUGAAGAGCUUUGGUUUUUUG ; measured polymerase ribozyme fitness (log ratio): -2.01

Lookup result for GACCAAUCUGCCCUCAGAGCUCGAGAACAUCUUCGCAUGCAGAGGAGGCAGGCUUCGGUGGCGCGAUAGCGCCAACGUCCUCAACCUCCAAUGCAUCCCACCACAUGAUGAUGCCUGAACAGCCUUGGUUUUUUG ; measured polymerase ribozyme fitness (log ratio): 0.237

Lookup result for GACCAAUCUGCCCUCAGAGCUCGAGAACAUCUUCGGAUGCAGAGGAGGCAGGCUUCGGUGGCGUGAUAGCGCCCUCGUCCUCAACCUCCAAUGCAUCCCACCACAUGAUAAUGCCUGAAGAGCCUUGGUUUUUUG ; measured polymerase ribozyme fitness (log ratio): -1.89

Lookup result for GACCAAUCUGCCCUCAGAGCUCGAGAACAUCUUCGGAUGCAGAGGAGGCAGGCUUCGGUGGCGUGAUAGCGCCAACGUCCUCAACCUCCAAUGCAUCCCACCACAUGAUGAUGCCAGAAUAGCCUUGGUUUUUUG ; measured polymerase ribozyme fitness (log ratio): -1.79

Lookup result for GACCAAUCUGUCCUCAGAGCUCGAGAACAUCUUCGGAUGCAGAGGAGGCAGGCUUCGGUGGCGCGAUAGCGCCAACGUCCUCAACCUCCAAUGGAUCCCACCACAUGAUGAUGCCUGAAGAGCCUUGGUUUUUUG ; measured polymerase ribozyme fitness (log ratio): -1.27

Lookup result for GACCAAUCUGCCCUCAGAGCUCGAGAACAUCUUCGGAUGCAGAGGAGGCAGGCUUCGGUAGCGCGAUAGCGCCAACGUCCUCAACCUCCAAUGCAUCCCACCACAUGAUGAUUCCUGAAGAGCCUUGGUUUUUUG ; measured polymerase ribozyme fitness (log ratio): -1.94

Lookup result for GACCAGUCUGCCCUCAGAGCUCGAGAACAUCUUCGGAUGCAGAGGAGGCAGUCUUCGGUGGCGCGAUAGCGCCAACGUCCUCAACCUCCAAUGCAUCCCACCACAUGAUGAUGCCUGAAGAGCCUUGGUUUUUUG ; measured polymerase ribozyme fitness (log ratio): -1.27

Lookup result for GACCAAUCUGCCCUCAGAGCUCGAGAACAUCUUCGGAUGCAGAGGAGGCAGGCUUCGGUGGCGUGAUAGCGCCAACGUCCUCAACCUCCAAUGCAUCCCACCACAUGAUGAUGCCUGAAGAGCCUUGAUUUUUUG ; measured polymerase ribozyme fitness (log ratio): -1.84

Lookup result for GACCAAUCUGCCCUCAGAGCUCGAGAACAUCUUCGGAUGCAGAGGAGGCAGGCUUCGGUGGCGCGAUAGCGCCAACGUCCUCAACCUCCAAUGCAUCCCACCACAUGAUGAUGCAUGAAGAGCCUUAGUUUUUUG ; measured polymerase ribozyme fitness (log ratio): -0.375

Lookup result for GACCAAUCUGCCCUCAGAGCUCGAGAACAUCUUCGGAUGCAGAGAAGGCAGGCUUCGGUGGCCCGAUAGCGCCAACGUCCUCAACCUCCAAUGCAUCCCACCACAUGAUAAUGCCUGAAGAGCCUUGGUUUUUUG ; measured polymerase ribozyme fitness (log ratio): -1.54

Lookup result for GACUAAUCUGGCCUCAGAGCUCGAGAACAUCUUCGGAUGCAGAGGAGGUAAGCUUCGGUGGCGCGAUAGCGCCAACGUCUUCAACCUCCAAUGGAUCCCACCACAUGAUGAUGCCUGAAGAGCCUUGGUUUUUUG ; measured polymerase ribozyme fitness (log ratio): -2.25

Lookup result for GACCAAUCUGCCCUCAUAGCUCGAGAACAUCUUCGGUUGCAGAGGAGGCAGGCUUCGGUGGCGCGAUAGCGCCAACGUCCUCAACCUCCAAUGCAUCCCACCACAUGAUGAUGCCUGAAGAGCCUUGGUUUUUUG ; measured polymerase ribozyme fitness (log ratio): -2.44

Lookup result for GACCAAUCUGCCCUCAGAGCUCGAGAACAUCUUCGGAUGCAGAGGAGGCAGGCUUCGGUGGCGCGAUAGCGCCAACGUCCUCAACCUCCAAUGCAUCCCACCAAAUGAUGAUGCCUGAAGAGCCUUGGUUUUUUG ; measured polymerase ribozyme fitness (log ratio): -1.45

Lookup result for GACCAAUCUGCCCUCAGAGCUCGAGAACAUCUUCGGAUGCAGAGGAGGCGGGCUUCGGUGGCGCGAUAGCGCCAACGUCCUCAACCUCCAAUGCAUCCCACCACAGGAUGAUGCCGGAAGAGCCUUGGUUUUUUG ; measured polymerase ribozyme fitness (log ratio): -3.36

Lookup result for GACCAAUCUGCCCUCAGAGCUCGAGAACAUCUUCGGAUUCAGAGGAGGCAGGCUUCGGUUGCGCGAUAGCGCCAACGUCCUCAACCUCCAAUGCAUCCCACCACAUGAUGAUGCCUGAAGAGCCUUGGUUUUUUG ; measured polymerase ribozyme fitness (log ratio): -0.635

Lookup result for GACCAAUCUGCCCUCAGAGCUCGAGAACAUCUUCGGAUGCAGAGGAGGCUGGCUUCGGUGCCGCGAUAGCGCCAACGUCCUCAACCUCCAAUGCAUCCCACCACAUGAUGAUUCCUGAAGAGCCUUGGUUUUUUG ; measured polymerase ribozyme fitness (log ratio): -5.56

Lookup result for GACCAAUCUGCCCUCAGAGCUCGAGAACAUCUUCGGAUGCAGAGGAGGCAGGCUUCGGUGGCGCGAUAGCUCCAACGUUCUCAACCUCCAAUGCAUCCCACCACAUGAUGAUGCCUGAAGAGCCUUGGUUUUUUG ; measured polymerase ribozyme fitness (log ratio): -0.201

Lookup result for GACCAAUCUGCCCUCAGAGCUCGAGAACAUCUUCGGAUGCAGAGGAGGCGGGCUUGGGUGGCGCGAUAGCGCCAACGUCCUCAACCUCCAAUGCAUCCCACCCCAUGAUGAUGCGUGAAGAGCCUUGGUUUUUUG ; measured polymerase ribozyme fitness (log ratio): -5.53

Lookup result for GACCAAUCUGCCGUCAGAGCUCGAGAACAUCUUCGGUUGCAGAGGAGAUAGGCUUCGGUGGCGCGAUAGCGCCAACGUCCUCAAUCUCCAAUCCAUCCCACCACAUGAUGAUGCCUGAAUAGCCUUGGUUUUUUG ; measured polymerase ribozyme fitness (log ratio): -1.53

Lookup result for GACCAAUCUGCCCUCAGAGCUCGAGAACAUCUUCGGAUGCAGAGGAGGCAGGCUUCGAUGGCGCGAUAGCGCCAACGUCCUCAACCUCCAAUGCAUCCCAUCACAUGAUGAUGCCUGAAUAGCCUUGGUUUUUUG ; measured polymerase ribozyme fitness (log ratio): -0.534

Lookup result for GACCAAUCUGCCCUCAGAGCUCGAGAACAUCUUCGGAUGCAGAGGAGGCAGGCUACGGUGGCGCGAUACCGCCAACGUCCUCAACCUCCAAUGCAUCCCACCAUAUGAUGAUGCAUGAAGAGCCUUGGUUUUUUG ; measured polymerase ribozyme fitness (log ratio): -0.166

Lookup result for GACCAAUCUGCCCUCAGAGCUGGAGAACAUCUUCGGAUGCAGAGGAGGCAGGCUUCGGUGGCGCGAUAGCGCCAACGUCCUCAACCACCAAUGCAUCCCACCACAUGAUGAUGACUGAAGAGCCUUGGUUUUUUG ; measured polymerase ribozyme fitness (log ratio): -2.89
